tested on: live UACC-62 human melanoma cells; test: Organelle-binding test: subcellular localization of styryl library compounds by fluorescence microscopy; format: cell-based; set-up: key: The subscript m indicates experimentally determined mitochondrial localization; The subscript o indicates experimentally determined non-mitochondrial localization; details: mitochondrial vs non-mitochondrial, live UACC-62 cells
measured.attribute: experimentally determined localization (subscript)

>>> measurement("Cc1cccc(C=Cc2ccc(OCc3ccccc3)c(OCc3ccccc3)c2)[n+]1C.[I-] [Compound A12-B12]")
"o"
>>> measurement("C[n+]1ccc(C=Cc2ccc(OCc3ccccc3)c(OCc3ccccc3)c2)c2ccccc21.[I-] [Compound A12-B7]")
"m"
>>> measurement("C[n+]1ccc(C=CCc2ccccc2)cc1.[I-] [Compound A1-B1]")
"o"
>>> measurement("C[n+]1ccc(C=Cc2ccc(OCc3ccccc3)c(OCc3ccccc3)c2)cc1.[I-] [Compound A12-B1]")
"m"
>>> measurement("C[n+]1c(C=Cc2cccc([N+](=O)[O-])c2)ccc2ccccc21.[I-] [Compound A21-B8]")
"m"
>>> measurement("Cc1cccc(C=CC=Cc2ccccc2)[n+]1C.[I-] [Compound A35-B12]")
"m"
>>> measurement("CC(=O)Nc1ccc(C=Cc2ccc3ccccc3[n+]2C)cc1.[I-] [Compound A18-B8]")
"m"
>>> measurement("COc1cc(OC)c(OC)cc1C=Cc1cc[n+](C23CC4CC(CC(C4)C2)C3)cc1.[Br-] [Compound A38-B2]")
"m"
>>> measurement("C[n+]1ccc(C=Cc2c[nH]c3ccccc23)cc1.[I-] [Compound A24-B1]")
"o"
>>> measurement("COc1ccc(C=Cc2ccc3cc(OC)ccc3[n+]2C)cc1.[I-] [Compound A10-B9]")
"o"
>>> measurement("CN(C)c1ccc(C=Cc2ccc3ccccc3[n+]2C)c2ccccc12.[I-] [Compound A27-B8]")
"m"
>>> measurement("Cc1cc(C)[n+](C)c(C=Cc2ccc(OCc3ccccc3)c(OCc3ccccc3)c2)c1.[I-] [Compound A12-B13]")
"o"
>>> measurement("COc1ccc(C=Cc2cc[n+](C34CC5CC(CC(C5)C3)C4)cc2)c2ccccc12.[Br-] [Compound A14-B2]")
"o"
>>> measurement("C[n+]1c(C=Cc2ccc3c(c2)OCO3)ccc2ccccc21.[I-] [Compound A39-B8]")
"o"
>>> measurement("CCc1ccc(C=Cc2ccc(OCc3ccccc3)c(OCc3ccccc3)c2)[n+](C)c1.[I-] [Compound A12-B5]")
"o"

###

experiment: Additive decomposition of peak excitation and emission wavelengths (model coefficients of A and B groups); conditions: influence of A group on peak excitation wavelength, A group 1 as baseline
Reported αi^ex values for the following compounds.
measured.attribute: αi^ex (nm)

>>> measurement("CN(C)c1ccc(C=O)c2ccccc12 [A group 27]")
11.1
>>> measurement("O=Cc1ccc(Cl)cc1 [A group 6]")
4.9
>>> measurement("O=Cc1cccc2ccccc12 [A group 32]")
"−36.1"
>>> measurement("CC(=O)Nc1ccc(C=O)cc1 [A group 18]")
"−24.3"
>>> measurement("O=Cc1c2ccccc2cc2ccccc12 [A group 34]")
14.1
>>> measurement("O=Cc1ccccc1[N+](=O)[O-] [A group 20]")
6.5
>>> measurement("O=Cc1ccccc1Br [A group 3]")
35.7
>>> measurement("O=Cc1ccccn1 [A group 40]")
"−18.1"

Just for reference, patent US20070111251A1 is where these values come from.
